Target: hepatic lipase (HL) (Homo sapiens)
Construct: made in house; host or cells: COS cells (conditioned medium, partially purified)
Assay: Hepatic lipase (HL) enzymatic assay, fluorescent substrate A10070 in DMPG vesicles
Assay type: biochemical
Settings: HL IC50, HL partially purified from conditioned media of COS cells; compound preincubated 30 min at 37° C
pIC50: −log10 of the molar value.

- compound: "NS(=O)(=O)NCc1nnc(C(c2nc3ccc(-c4cccc(C(=O)N5CCC(=O)CC5)c4)cc3s2)S(=O)(=O)CCC(F)(F)F)o1 (stereo not shown)"
  pIC50: 6.77

###

Each item that follows carries a reported IC50.
Target: hepatic lipase (HL) (Homo sapiens, UniProt P11150)
Construct: made in house; host or cells: COS cells (conditioned medium, partially purified)
Sequence (P11150 23-499): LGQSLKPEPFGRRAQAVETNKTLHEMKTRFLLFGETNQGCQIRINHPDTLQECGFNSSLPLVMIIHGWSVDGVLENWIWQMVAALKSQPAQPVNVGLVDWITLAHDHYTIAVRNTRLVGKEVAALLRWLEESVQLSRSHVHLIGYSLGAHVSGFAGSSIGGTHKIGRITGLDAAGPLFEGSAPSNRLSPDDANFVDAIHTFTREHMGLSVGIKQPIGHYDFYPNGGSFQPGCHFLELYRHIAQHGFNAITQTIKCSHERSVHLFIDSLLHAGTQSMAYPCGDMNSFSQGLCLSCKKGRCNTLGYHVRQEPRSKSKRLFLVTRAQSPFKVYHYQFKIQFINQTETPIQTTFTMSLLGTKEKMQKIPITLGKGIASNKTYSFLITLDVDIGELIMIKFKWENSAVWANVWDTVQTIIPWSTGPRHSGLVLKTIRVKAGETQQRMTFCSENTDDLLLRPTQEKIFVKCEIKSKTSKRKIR
Assay: Hepatic lipase (HL) enzymatic assay, fluorescent substrate A10070 in DMPG vesicles
Type: biochemical
Conditions: HL partially purified from conditioned media of COS cells; compound preincubated 30 min at 37° C; read-out: HL IC50

- compound: "CN1CCN(C(=O)c2cccc(-c3ccc4nc(C(c5nnc(CNS(N)(=O)=O)o5)S(=O)(=O)CCC(F)(F)F)sc4c3)c2)CC1 (stereo not shown)"
  target: "hepatic lipase (HL) (Homo sapiens, UniProt P11150)"
  comparativeSign: "="
  IC50 / µM: 0.365
- compound: "O=C1NC(=O)C(Cc2nnc(C(c3nc4ccc(-c5ccccc5)c(F)c4s3)S(=O)(=O)Cc3ccccc3)o2)S1 (stereo not shown)"
  target: "hepatic lipase (HL) (Homo sapiens, UniProt P11150)"
  comparativeSign: "<"
  IC50 / µM: 0.01
- compound: "NS(=O)(=O)NCc1nnc(C(c2nc3ccc(-c4cnn(-c5ccc(F)cc5)c4)cc3s2)S(=O)(=O)Cc2ccccc2)o1 (stereo not shown)"
  target: "hepatic lipase (HL) (Homo sapiens, UniProt P11150)"
  comparativeSign: "<"
  IC50 / µM: 0.01
- compound: "NS(=O)(=O)NCc1nnc(C(c2nc3ccc(-c4cccc(C(=O)NCC(F)(F)F)c4)cc3s2)S(=O)(=O)CCC(F)(F)F)o1 (stereo not shown)"
  target: "hepatic lipase (HL) (Homo sapiens, UniProt P11150)"
  comparativeSign: "="
  IC50 / µM: 0.336
- compound: "NCCS(=O)(=O)C(c1nnc(CNS(N)(=O)=O)o1)c1nc2ccc(-c3ccccc3)cc2s1 (stereo not shown)"
  target: "hepatic lipase (HL) (Homo sapiens, UniProt P11150)"
  comparativeSign: "="
  IC50 / µM: 0.012
- compound: "NS(=O)(=O)NCc1nnc(C(c2nc3ccc(-c4ccccc4)cc3s2)S(=O)(=O)CC(O)CO)o1 (mixture of isomers)"
  target: "hepatic lipase (HL) (Homo sapiens, UniProt P11150)"
  comparativeSign: "<"
  IC50 / µM: 0.01
- compound: "CS(=O)(=O)C(c1nnc(CNS(N)(=O)=O)o1)c1nc2cc(-c3ccccc3)ccc2s1 (stereo not shown)"
  target: "hepatic lipase (HL) (Homo sapiens, UniProt P11150)"
  comparativeSign: "="
  IC50 / µM: 0.001
